- systemName: HLA A2601 (human)
- experimentDescription: 125I-probe competition, purified HLA
# note: exactly 3 µM is not below, so it is FALSE; use TRUE for IC50 strictly under it

binder	answerLabel
ATCVSHRGLY (modifications not checked) [HPV18.E2.154]	TRUE
QVDYYGLYY (modifications not checked) [HPV16.E2.151]	TRUE
STDLRDHIDY (modifications not checked) [HPV16.E2.23]	TRUE
LQDKILDHY (modifications not checked) [HPV45.E2.17]	FALSE
LSQMVQWAY (modifications not checked) [HPV16/31.E1.357]	FALSE
NTGILTVTY (modifications not checked) [HPV45.E2.332]	FALSE
NTELYNLLI (modifications not checked) [HPV45.E6.95]	FALSE
ELDPVDLLCY (modifications not checked) [HPV45.E7.20]	TRUE
LSSALEIPY (modifications not checked) [HPV31.E6.15]	FALSE

FYI, the data here is from patent US20100272750A1.
